Kindly supply the reported self-cleavage values for the records listed here.
B1: HDV Ribozyme (parent)
chain: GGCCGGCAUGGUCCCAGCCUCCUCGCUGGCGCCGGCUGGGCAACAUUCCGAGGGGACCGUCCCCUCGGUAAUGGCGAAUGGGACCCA

# Variants of: B1
# methodSummary: self-cleavage, relative activity (ratio to wild type); higher = more cleavage; co-transcriptional

self-cleavage recorded for this variant, C44G C48U , is 0.517

Per the records, this variant ( U27A C36U ) has self-cleavage equal to 0.538

self-cleavage for G11A C19A is 0.0811
